Source: patent US9440982B2

Target: CYP3A4 (Homo sapiens)
Construct: pre-incubated with human liver microsomes and NADPH; from tissue; host or cells: human liver microsomes
Sequence (P08684 whole entry): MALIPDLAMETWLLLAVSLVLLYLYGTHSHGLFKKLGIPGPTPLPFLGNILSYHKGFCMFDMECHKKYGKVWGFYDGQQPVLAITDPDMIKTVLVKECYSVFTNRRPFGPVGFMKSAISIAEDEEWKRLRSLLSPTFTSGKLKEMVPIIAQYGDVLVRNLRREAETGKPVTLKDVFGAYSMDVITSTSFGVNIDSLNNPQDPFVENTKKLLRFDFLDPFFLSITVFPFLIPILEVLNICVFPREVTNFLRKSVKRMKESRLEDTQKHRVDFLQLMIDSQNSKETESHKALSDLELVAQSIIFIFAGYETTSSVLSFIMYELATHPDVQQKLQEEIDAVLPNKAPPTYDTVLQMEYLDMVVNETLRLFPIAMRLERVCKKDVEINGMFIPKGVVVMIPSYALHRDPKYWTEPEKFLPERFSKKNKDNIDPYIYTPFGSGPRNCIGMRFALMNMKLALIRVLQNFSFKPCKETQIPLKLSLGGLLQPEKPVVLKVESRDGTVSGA
Test: Cytochrome P450 inhibition assay (midazolam hydroxylation)
Type: in vitro ADME
Settings: human, human liver microsomes, probe midazolam (hydroxylation to 1′-hydroxymidazolam), 10 μM test compound, midazolam at approximately its Km
measurement kind: inhibition at 10 µM (%)

- smiles notation: "Cc1ccc(NC[C@@H]2[C@H](C)CCCN2C(=O)c2nc(C)ccc2-n2nccn2)nc1"
  uom: "%"
  recorded number: 50
- smiles notation: "Cc1ccc(-c2cccnc2)c(C(=O)N2CCC[C@@H](C)[C@H]2CNc2ncc(C(F)(F)F)cn2)n1"
  uom: "%"
  recorded number: 93
- smiles notation: "Cc1ccc(-n2ccc(C)n2)c(C(=O)N2CCC[C@@H](C)[C@H]2CNc2ccc(Cl)cn2)c1"
  uom: "%"
  recorded number: 90
- smiles notation: "Cc1ccc(-n2nccn2)c(C(=O)N2CCC[C@@H](C)[C@H]2CNc2nc(C(F)(F)F)cs2)c1"
  uom: "%"
  recorded number: 97
